# Species on record: Homo sapiens
# measurement_protocol: To identify inhibition of the IFN signalling (Jak-Stat) pathway via expression of an eGFP reporter gene under the control of an IFN-stimulated response element (ISRE) containing MxA promoter.
# Assay type: functional
# Set-up: scale not given: direction of the effect not stated beside the values
# study_conditions: 30 µM
Percent Effect values, listed per item
Number first, unit second.

Example entries begin here.
{"compound": "O=C1CC(c2ccncc2)C2(CCN(CCO)CC2)N1 (centres undefined)", "Percent Effect": "-9.49%"}
{"compound": "O=C(NC(Cc1ccsc1)c1nccs1)C1CCOCC1 (centres undefined)", "Percent Effect": "10.9%"}
{"compound": "CCOc1ccccc1CSc1nnc(CC2CCS(=O)(=O)C2)n1C (centres undefined)", "Percent Effect": "5.04%"}
{"compound": "CC(NC(=O)N1CCC(OCc2ccccc2)CC1)c1nncn1C (centres undefined)", "Percent Effect": "15.6%"}
{"compound": "CCNc1cc2c(nn1)CCN(C(=O)Cc1noc3ccccc13)C2", "Percent Effect": "5.21%"}
{"compound": "COc1cc(CN(C)C(=O)Nc2cc(C)on2)ccc1SC", "Percent Effect": "6.33%"}
{"compound": "NC(=O)C1CN(C(=O)Nc2ccccc2-c2cccs2)CCO1 (centres undefined)", "Percent Effect": "6.89%"}
{"compound": "O=C(NCC(=O)N1CCc2ccccc2C1)c1ccoc1", "Percent Effect": "23.4%"}
{"compound": "Cc1noc(C)c1C(=O)N1C[C@H]2CCC[C@@]2(COc2ccccn2)C1", "Percent Effect": "-28.1%"}
{"compound": "COCCc1noc(CN2CCCC2Cn2cc(C)cn2)n1 (centres undefined)", "Percent Effect": "-1.19%"}

**Q:** Please give measured Percent Effect of the following entry: Cc1cc(C(=O)NCc2ccc(N3CCCC(C(N)=O)C3)cc2)[nH]n1 (centres undefined)
**A:** 14.9%

**Q:** Identify measured Percent Effect corresponding to CCn1nc(C)c(CCNC(=O)C2CCCN(CC(N)=O)C2)c1C (centres undefined)
**A:** 12.5%

**Q:** Return the recorded Percent Effect value; entry: Cc1nc(COc2ccc(CNCC3CN(C)CCO3)cc2)cs1 (centres undefined)
**A:** 18.8%

**Q:** Tell me Percent Effect reported for O=C(NCC(O)c1cccs1)c1cccc(Cl)c1 (centres undefined)
**A:** 13.3%

**Q:** Please list Percent Effect recorded for the compound Cc1cccc(-c2noc(CN3CCCC(Cn4cncn4)C3)n2)c1 (centres undefined)
**A:** 5.05%

**Q:** Give a short answer stating reported Percent Effect for CN(Cc1cccc(F)c1)C(=O)CN1CCCCC1Cn1cncn1 (centres undefined) .
**A:** -1.75%

**Q:** Please give the documented Percent Effect of COC(=O)c1sccc1NC(=O)C1CCCN1C(=O)c1ccco1 (centres undefined)
**A:** 1.28%

**Q:** Determine its reported Percent Effect: O=C1CC2(CCN(Cc3ccoc3)C2)CN1c1ccc2c(c1)OCO2 (centres undefined)
**A:** 4.43%

**Q:** Report Percent Effect for O=C(Cc1noc2ccccc12)N1CCCC1c1noc(C2CC2)n1 (centres undefined)
**A:** 86.2%

**Q:** Consider the compound CNC(=O)[C@H]1C[C@@H]2CN(C(=O)Nc3ccc(F)cc3)C[C@H]1O2 . State its measured Percent Effect.
**A:** 18.3%

**Q:** Give Percent Effect for c1csc(-c2nc(CNC3CCc4ncnn4C3)cs2)c1 (centres undefined)
**A:** 0.908%

**Q:** For the compound Cc1nc(C2(O)CCCNCC2)sc1CCOc1ccc(Cl)cc1 (centres undefined) , give its measured Percent Effect value.
**A:** 33.8%

**Q:** In one line, give reported Percent Effect of the entry Cc1ccsc1CN(C)C(=O)Cn1nc(-c2ccc(F)cc2)oc1=O .
**A:** 10.2%

**Q:** Let me know recorded Percent Effect for Cc1nc(C)n(CC2CCCN(CCC(=O)N3CCCCC3)C2)n1 (centres undefined) , thanks.
**A:** 20.7%
